The reported numbers originate from patent US20220073604A1.

Biological target: T1, cynomolgus monkey IL-6 (cynomolgus monkey, UniProt P79341 28-212, limits assumed)
T1 construct: also called HIS-cyIL-6
Assay: SPR; periplasmic fraction; against parental 29B11
readout label: fold improvement ka (fold)
The response must be a number in fold with no trailing unit.

Fab 55H1 (Fab, V domains shown, VL-shuffled Fab of 29B11, periplasmic fraction; also called 55H1c) VH: EVQLVESGGGLVQPGGSLRLSCAASGFTFSSYAMSWVRQAPGKGLEWVSRISSGGISTYYADSVKGRFTISRDNAKNTLYLQMNSLKPEDTAVYYCVRYAWGVQWAFDFWGQGTQVTVSS VL: AQSVVTQPPSVSGSPGKTVTISCAGTSSDVGYGNYVSWYQQLPGMAPKLLIYDVSKRASGIADRFSGSKSGNTASLTISGLQSEDEADYVCASYRRGGTAVFGGGTHLTVLG yielded fold improvement ka of 10.3

// recorded fold improvement ka for Fab 55E2 (Fab, V domains shown, VL-shuffled Fab of 29B11, periplasmic fraction; also called 55E2b) VH: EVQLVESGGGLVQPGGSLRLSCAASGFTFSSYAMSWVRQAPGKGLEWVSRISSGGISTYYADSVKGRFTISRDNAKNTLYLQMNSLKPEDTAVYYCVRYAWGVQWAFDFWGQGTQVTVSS VL: AQSVLTQPPSVSGSPGKTVTISCAGTSSDVGYGNYVSWYQQLPGMAPKLLIYDVNKRASGIADRFSGSKFANTASLTISGLQSEDEADYYCASYKRGDNAVFGGGTKLTVLG : 4.14

fold improvement ka in this record for Fab 47C2 (Fab, V domains shown, VL-shuffled Fab of 29B11, periplasmic fraction; also called 47C2 (R4)) VH: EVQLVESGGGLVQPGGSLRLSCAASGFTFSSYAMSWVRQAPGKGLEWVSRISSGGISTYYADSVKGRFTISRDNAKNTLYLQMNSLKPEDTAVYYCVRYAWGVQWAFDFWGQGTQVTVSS VL: LSYDLTQPPSVSGSPGKTVTISCAGTSSDVGYGNYVSWYQQLPGMAPKILIYDVNKRASGIADRFSGSKSGNTASLTISGLQSEDEADYYCASYRRGETIVFGGGTHLTVLG : 7.53

For reference, reported fold improvement ka for Fab 48C10 (Fab, V domains shown, VL-shuffled Fab of 29B11, periplasmic fraction) VH: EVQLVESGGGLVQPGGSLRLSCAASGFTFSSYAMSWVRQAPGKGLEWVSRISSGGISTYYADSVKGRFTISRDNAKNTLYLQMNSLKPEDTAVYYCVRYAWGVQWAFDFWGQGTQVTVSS VL: AQSVLTQPPSVSGSPGQTVTISCAGTSEDVGYGNYVSWYQQLPGMAPKLLIYDVNKRASGIADRFSGSKSGNTASLTISGLQSEDEADYYCASYRRTIDNIFGGGTHLTVLG stands at 1.59
